# systemUnderTest: recombinant human FLAP protein (Homo sapiens)
# Construct: made in house; host or cells: Sf9 insect cells (membrane fraction, 100,000 x g pellet)
# measurementNotes: FLAP binding assay (SPA, displacement of [125I]L-691,831)
# statedConditions: membranes of sf9 cells expressing human FLAP, [125I]L-691,831 probe; read-out: hFLAP binding IC50
measurementKind: log10(IC50) (log10 of the value in nM)
In our notation, the value equals log10 of IC50 in nM.

Please review the entries below; each comes with its answer.
CC(C)C(C)(C(=O)Nc1cccnc1)c1ccc(-c2cnc3[nH]ccc3c2)cc1 (centres unmarked) :: 0.80
Cn1cc(-c2ccc(NC(=O)C3(c4ccc(-c5cnc(N)nc5)cc4)CCC3)nc2)cn1 :: 0.40
COc1cc(NC(=O)C2(c3ccc(-c4cnc(N)nc4)cc3)CCC2)ncn1 :: 0.76

Query: # get_value(readout='log10(IC50)', item= Nc1ncc(-c2ccc(C3(C(=O)Nc4ccncc4)CCCC3)cc2)cn1 )
Reply: 1.33

Query: Another compound to check: Nc1ncc(-c2ccc(C3(C(=O)Nc4cccc(Oc5ccccc5)c4)CCOCC3)cc2)cn1
Reply: 1.78

Query: Also check CS(=O)(=O)c1ccc(NC(=O)C2(c3ccc(-c4cnc(N)nc4)cc3)CCC2)cn1
Reply: 0.91

Query: Another compound to look at: COc1cncc(-c2ccc(NC(=O)C3(c4ccc(-c5cnc6[nH]ccc6c5)cc4)CCOCC3)nc2)c1
Reply: 0.67

Query: Request: N=C(N)NC(=O)c1ccc(NC(=O)C2(c3ccc(-c4cnc(N)nc4)cc3)CCC2)nc1
Reply: 0.30

====

# systemUnderTest: recombinant human FLAP protein (Homo sapiens, UniProt P20292)
# Sequence (P20292 1-161): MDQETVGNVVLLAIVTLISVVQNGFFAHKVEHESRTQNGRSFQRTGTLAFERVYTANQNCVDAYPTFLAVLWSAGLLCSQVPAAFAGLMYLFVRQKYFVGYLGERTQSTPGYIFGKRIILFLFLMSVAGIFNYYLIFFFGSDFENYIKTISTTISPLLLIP
# measurementNotes: FLAP binding assay (SPA, displacement of [125I]L-691,831)
# statedConditions: membranes of sf9 cells expressing human FLAP, [125I]L-691,831 probe; read-out: hFLAP binding IC50
pIC50: −log10 of the molar value.
# label = condition met if pIC50 >= 7 else condition not met

Solved entries:
COc1ccc(Oc2ccccc2)cc1NC(=O)C1(c2ccc(-c3cnc(N)nc3)cc2)CCOCC1 [Example 76] :: condition met
Nc1ncc(-c2ccc(C3(C(=O)Nc4nc(-c5ccccc5)ns4)CCOCC3)cc2)cn1 [Example 36] :: condition met
N#Cc1ccnc(NC(=O)C2(c3ccc(-c4cnc(N)nc4)cc3)CCOCC2)c1 [Example 79] :: condition met

Query: Does pIC50 meet or surpass 7 for Nc1ncc(-c2ccc(C3(C(=O)Nc4ccc(-c5ccncc5)cc4)CCOCC3)cc2)cn1 [Example 34] ?
Reply: condition met

Query: // next record Cc1nc(-c2ccc(NC(=O)C3(c4ccc(-c5cnc(N)nc5)cc4)CCCCC3)nc2)cs1 [Example 123]
Reply: condition met

Query: Consider next the compound CN1CCN(c2cccc(NC(=O)C3(c4ccc(-c5cnc(N)nc5)cc4)CCOCC3)c2)CC1 [Example 53] in the same way.
Reply: condition not met

Query: Proceed to O=C(Nc1ccncn1)C1(c2ccc(-c3cnc4[nH]ccc4c3)cc2)CCC1 [Example 188]
Reply: condition met

Query: Do the same for CCCCc1ccc2cc(NC(=O)C(C)(c3ccc(-c4cncc(OC)c4)cc3)C(C)C)ccc2n1 (stereo not drawn) [Example 115] please
Reply: condition not met

Query: Same for Nc1ncc(-c2ccc(C3(C(=O)Nc4ccc(-c5ncn[nH]5)cn4)CCC3)cc2)cn1 [Example 102]
Reply: condition met
